# assayed.target: GlcNAc(b1-3)Gal(b1-4)GlcNAc(b1-3)Gal(b1-4)GlcNAc(b1-3)Gal(b1-4)GlcNAc(b1-2)Man(a1-3)[GlcNAc(b1-3)Gal(b1-4)GlcNAc(b1-3)Gal(b1-4)GlcNAc(b1-3)Gal(b1-4)GlcNAc(b1-2)Man(a1-6)]Man(b1-4)GlcNAc(b1-4)GlcNAc
# measurement.description: glycan array binding signal (z-score within array); higher = stronger binding
# experimental.context: glycan notation: IUPAC condensed, linker removed
About 410 targets per protein were measured; listed, in parts, are those with the strongest signals and a random draw of the rest.
# key: entry, value: glycan array binding signal (z-score)
// response body must contain only the number

# example entries with known answers
HPA (Helix pomatia), Q575S3 (protein) MWAHLTGLLLICALSLSAAQRAQTGEIDCGSDSSWPKDPSDNPNRDNTREIVKHVTFSPQFCREPKVILSVTTLDAEHTKNLRYEARLKSVSPSGLSASCYSWHDGTIYRMKLSWLAVED: -0.257
PpFlo2 (Pichia pastoris) (protein) MGSSHHHHHHSSGLVPRGSHMDDSGNGDNSDTAYGCDITTNAVDGFDATIYQYNANDLRLIRDPTFMSTGYLGRNVLNKISGVTVPGFNIWNPSSRTATVYGVKNVNYYNMVLELKGYFKADVSGDYKLTLSHIDDSSMLFFGKETAFKCCDAGSIPLNEAPTDYSLFTIKPSNQVNSEVISATQYLEAGKYYPVRIVFVNALERARFDFKLTIPSGAVLDDFQNYIYQFGDLDENSCHE: 4.24

From here, focus on the item given below.
-- ask Name the reported glycan array binding signal (z-score) value associated with the binder MpAFP NterminalRI GFP (Marinomonas primoryensis) (protein) MSDNQFPFATLGNAIGFITKLDGSVTVQSIDGQERVLKLGDPIFFGETVLTGGSGSVTIAFVDGTDVVIGGDSIVEMTDEIYNTGDNEDLVADSSSEIDALQNAILAGDDPTLIQDAPAAGNTLADQQRVDVSIERNDNSAQAGFGVDTQSSLPTYGYDTDNGNGGQATEREYSAPSLSRTLNQSPLLEHHHHHH
-- reply 6.83
